biological target: RAC-alpha serine/threonine-protein kinase (Homo sapiens) (UniProt P31749); assay: Inhibition of AKT1 up to 100 uM
Sequence (P31749 whole entry): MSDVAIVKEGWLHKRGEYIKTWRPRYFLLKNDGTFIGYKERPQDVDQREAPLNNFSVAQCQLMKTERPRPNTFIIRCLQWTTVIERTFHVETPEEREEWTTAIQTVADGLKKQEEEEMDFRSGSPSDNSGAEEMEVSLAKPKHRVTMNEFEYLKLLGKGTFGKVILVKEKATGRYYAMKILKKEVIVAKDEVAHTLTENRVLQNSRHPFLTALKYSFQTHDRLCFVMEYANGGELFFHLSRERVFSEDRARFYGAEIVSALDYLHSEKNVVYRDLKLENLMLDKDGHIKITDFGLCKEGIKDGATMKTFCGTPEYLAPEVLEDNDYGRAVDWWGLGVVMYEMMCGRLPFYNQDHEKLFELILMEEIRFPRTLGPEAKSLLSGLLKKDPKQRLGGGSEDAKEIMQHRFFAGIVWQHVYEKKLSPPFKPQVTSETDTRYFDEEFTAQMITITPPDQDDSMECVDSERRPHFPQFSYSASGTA
Calls of active or inactive are those of the source. The calls are words filed in the database; no cut-off is given here.
MEASURED PARAMETER: inhibition

Record excerpt, results attached:
LINE NOTATION | TARGET OR SYSTEM | inhibition
Nc1ncnc2c1ncn2CC(=O)c1c[nH]c2ccccc12 | RAC-alpha serine/threonine-protein kinase (Homo sapiens) (UniProt P31749) | inactive
Nc1ncnc2ncn(CC(=O)c3ccccc3)c12 | RAC-alpha serine/threonine-protein kinase (Homo sapiens) (UniProt P31749) | inactive
COc1ncnc2c1ncn2CC(=O)c1ccccc1 | RAC-alpha serine/threonine-protein kinase (Homo sapiens) (UniProt P31749) | inactive
COc1ncnc2ncn(CC(=O)c3ccccc3)c12 | RAC-alpha serine/threonine-protein kinase (Homo sapiens) (UniProt P31749) | inactive
Nc1ncnc2c1ncn2CC(=O)c1ccccc1 | RAC-alpha serine/threonine-protein kinase (Homo sapiens) (UniProt P31749) | inactive
Nc1ncnc2c1ncn2CC(=O)c1cccnc1 | RAC-alpha serine/threonine-protein kinase (Homo sapiens) (UniProt P31749) | inactive
Nc1ncnc2c1ncn2CC(=O)c1ccccn1 | RAC-alpha serine/threonine-protein kinase (Homo sapiens) (UniProt P31749) | inactive
CN(C)c1ncnc2c1ncn2CC(=O)c1c[nH]c2ccccc12 | RAC-alpha serine/threonine-protein kinase (Homo sapiens) (UniProt P31749) | inactive

Okay, now this molecule:
# input Entry Nc1ncnc2ncn(CC(=O)c3c[nH]c4ccccc34)c12 : reported inhibition = ?
# output inactive

====

Target: Aurora kinase A (Homo sapiens)
Sequence (whole entry): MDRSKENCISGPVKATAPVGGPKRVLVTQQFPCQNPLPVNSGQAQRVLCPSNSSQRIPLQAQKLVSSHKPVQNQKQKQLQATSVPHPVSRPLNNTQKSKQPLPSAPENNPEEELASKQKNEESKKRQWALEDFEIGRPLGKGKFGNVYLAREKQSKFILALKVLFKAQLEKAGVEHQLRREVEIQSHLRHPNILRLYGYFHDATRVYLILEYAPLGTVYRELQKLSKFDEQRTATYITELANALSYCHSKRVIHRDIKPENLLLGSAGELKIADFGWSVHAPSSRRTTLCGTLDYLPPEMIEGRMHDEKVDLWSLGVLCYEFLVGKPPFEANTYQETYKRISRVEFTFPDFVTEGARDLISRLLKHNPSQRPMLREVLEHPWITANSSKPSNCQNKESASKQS
Test: Inhibition of Aurora A up to 100 uM
Calls of active or inactive are those of the source. The calls are words filed in the database; no cut-off is given here.

LINE NOTATION | inhibition
Nc1ncnc2ncn(CC(=O)c3ccccc3)c12 | inactive
CN(C)c1ncnc2c1ncn2CC(=O)c1c[nH]c2ccccc12 | inactive
Nc1ncnc2c1ncn2CC(=O)c1c[nH]c2ccccc12 | inactive

====

molecular target: Hepatocyte growth factor receptor (Homo sapiens) (UniProt P08581); experiment: Inhibition of MET up to 100 uM
Sequence (P08581 whole entry): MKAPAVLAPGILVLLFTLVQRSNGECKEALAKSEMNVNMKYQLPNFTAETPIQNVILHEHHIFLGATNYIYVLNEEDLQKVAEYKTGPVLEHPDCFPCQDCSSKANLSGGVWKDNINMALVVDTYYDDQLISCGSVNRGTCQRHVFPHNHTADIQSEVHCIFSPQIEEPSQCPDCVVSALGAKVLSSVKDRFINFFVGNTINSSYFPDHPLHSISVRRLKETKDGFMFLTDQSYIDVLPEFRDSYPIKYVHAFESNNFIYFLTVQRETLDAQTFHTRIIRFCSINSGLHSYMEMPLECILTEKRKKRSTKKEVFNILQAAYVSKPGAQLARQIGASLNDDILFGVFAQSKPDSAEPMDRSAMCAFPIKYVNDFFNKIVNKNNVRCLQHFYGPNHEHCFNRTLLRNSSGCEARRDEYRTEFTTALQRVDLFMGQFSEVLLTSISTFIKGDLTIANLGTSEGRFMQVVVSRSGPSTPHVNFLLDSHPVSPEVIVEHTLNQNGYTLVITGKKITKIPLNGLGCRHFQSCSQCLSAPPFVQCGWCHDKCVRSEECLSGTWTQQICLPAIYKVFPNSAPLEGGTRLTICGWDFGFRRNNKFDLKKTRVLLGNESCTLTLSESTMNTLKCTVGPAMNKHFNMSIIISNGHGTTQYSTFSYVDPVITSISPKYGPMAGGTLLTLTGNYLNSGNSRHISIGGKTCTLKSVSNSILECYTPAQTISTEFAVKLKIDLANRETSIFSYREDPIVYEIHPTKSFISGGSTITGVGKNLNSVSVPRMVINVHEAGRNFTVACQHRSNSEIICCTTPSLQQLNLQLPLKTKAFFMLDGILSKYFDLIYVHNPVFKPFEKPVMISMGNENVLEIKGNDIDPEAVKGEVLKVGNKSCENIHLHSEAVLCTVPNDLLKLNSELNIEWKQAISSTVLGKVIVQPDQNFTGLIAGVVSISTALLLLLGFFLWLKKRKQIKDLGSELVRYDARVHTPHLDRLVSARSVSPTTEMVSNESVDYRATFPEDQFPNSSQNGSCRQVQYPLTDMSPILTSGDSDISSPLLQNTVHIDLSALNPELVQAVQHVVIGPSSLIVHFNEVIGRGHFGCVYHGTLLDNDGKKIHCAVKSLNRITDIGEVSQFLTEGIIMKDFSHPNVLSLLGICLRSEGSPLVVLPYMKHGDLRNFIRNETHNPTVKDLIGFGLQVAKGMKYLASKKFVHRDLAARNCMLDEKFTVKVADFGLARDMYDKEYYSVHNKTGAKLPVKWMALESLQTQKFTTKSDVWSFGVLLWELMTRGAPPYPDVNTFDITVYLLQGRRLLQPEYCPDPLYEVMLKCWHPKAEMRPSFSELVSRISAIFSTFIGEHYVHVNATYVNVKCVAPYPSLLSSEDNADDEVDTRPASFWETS
Active and inactive are the calls of the source. The calls are words filed in the database; no cut-off is given here.

LINE NOTATION | TARGET OR SYSTEM | inhibition
Nc1ncnc2c1ncn2CC(=O)c1ccccn1 | Hepatocyte growth factor receptor (Homo sapiens) (UniProt P08581) | inactive
Nc1ncnc2c1ncn2CC(=O)c1cccnc1 | Hepatocyte growth factor receptor (Homo sapiens) (UniProt P08581) | inactive
Nc1ncnc2c1ncn2CC(=O)c1c[nH]c2ccccc12 | Hepatocyte growth factor receptor (Homo sapiens) (UniProt P08581) | inactive
